From: ChEMBL document CHEMBL3414507

Attribute: Activity
molecular target: Caspase-3 (Homo sapiens); assay: Activation of procaspase-3 (unknown origin) using Ac-DEVD-pNa as substrate at 10 uM after 2 hrs by spectrophotometry
Readout Label: Activity

>>> result("C=CCc1cccc(/C=N/NC(=O)CN2CCN(Cc3ccccc3)CC2)c1O")
"100%"
>>> result("CN(C)Cc1ccc2nc(NC(=O)N/N=C/c3cn(Cc4cccc(Cl)c4)c4ccccc34)sc2c1")
"48.8%"
>>> result("CN(C)Cc1ccc2nc(NC(=O)N/N=C3\\C(=O)Nc4ccc(F)cc43)sc2c1")
"9.1%"
>>> result("CN(C)Cc1ccc2nc(NC(=O)N/N=C/c3cn(Cc4ccc(Cl)cc4)c4ccccc34)sc2c1")
"70.9%"
